assay: dynein cargo transport inhibitors, GR-EGFP translocation, confirmation, imaging, high-content imaging, GR-EGFP cells (AID 463116); conditions: 3617.4 GR-EGFP nuclear translocation imaging, dexamethasone-induced, at 20 µM; measured here: cell count per field
Hit rate of the full screen: of about 1,000 compounds, about 710 (71%) were called active. Another 7% or so got no clear call; they are omitted. So high a share suggests a set chosen from earlier hits. These entries were drawn from the full list.
Note to self: values exactly at 0.2 are true (1). So z-score at or above 0.2 is true (1), below is false (0).

>  <compound>
C[C@@H]1C[C@@H]2O[C@H]2/C=C\C=C\C(=O)Cc2c(Cl)c(O)cc(O)c2C(=O)O1

>  <category>
false (0)

$$$$
>  <compound>
O=C(CCl)N(Cc1cccc([N+](=O)[O-])c1)c1cccc(Cl)c1

>  <category>
false (0)

$$$$
>  <compound>
Cc1cccc2cc3c(N)c(C(=O)N4CCCc5ccccc54)sc3nc12

>  <category>
false (0)

$$$$
>  <compound>
Cc1cc(-c2n[nH]c(=S)n2/N=C/C(Br)=C/c2ccccc2)n[nH]1

>  <category>
true (1)

$$$$
>  <compound>
CCN(CC)c1ccc2oc(=O)c(C)nc2c1

>  <category>
true (1)

$$$$
>  <compound>
Oc1c(C=Nc2cccc3nsnc23)ccc2ccccc12

>  <category>
true (1)

$$$$
>  <compound>
CCC1=C/C(=C\c2ccc3c(c2)OCO3)C(=O)S1

>  <category>
true (1)

$$$$
>  <compound>
Cn1c(=O)c([N+](=O)[O-])c(Oc2ccccc2)c2ccccc21

>  <category>
true (1)

$$$$
>  <compound>
CCN1/C(=C/c2ccc3ccc(C)cc3[n+]2CC)Sc2ccccc21

>  <category>
false (0)

$$$$
>  <compound>
COc1ccc(-c2cc(C(F)(F)F)nc(S(C)(=O)=O)n2)cc1OC

>  <category>
true (1)

$$$$
>  <compound>
C=CS(=O)c1sc(Cl)c(N2CCOCC2)c1[N+](=O)[O-] (configuration not stated)

>  <category>
false (0)

$$$$
>  <compound>
N#C/C(=C/c1ccc(N2CCCCC2)o1)C(=O)NCCc1c[nH]c2ccccc12

>  <category>
false (0)

$$$$
>  <compound>
O=C(/C=C/Sc1ncn[nH]1)c1ccc(Cl)cc1

>  <category>
true (1)

$$$$
>  <compound>
O=S1(=O)CCC(NC(=S)SCc2ccccc2Br)C1 (configuration not stated)

>  <category>
false (0)

$$$$
>  <compound>
Cc1cc(C)nc(S/C=C/C(=O)c2ccccc2)n1

>  <category>
true (1)

$$$$
>  <compound>
CC1=C/C(=N\OS(=O)(=O)c2ccccc2)C=CC1=O

>  <category>
true (1)

$$$$
>  <compound>
CC1(C)CCSC(/C=C/c2ccccc2)=N1

>  <category>
false (0)

$$$$
>  <compound>
COc1ccc(NC(=O)/C(Cl)=C(/Cl)S(=O)Cc2ccc(C)cc2)cn1 (configuration not stated)

>  <category>
false (0)

$$$$
>  <compound>
COc1cc2c(cc1O)C(SC)=NC(C)(C)C2

>  <category>
false (0)

$$$$
>  <compound>
Cc1cc(C(=O)NCCc2ccc(Cl)cc2)n(-c2ccccc2)n1

>  <category>
false (0)

$$$$
>  <compound>
O=C(Nc1ccccc1)c1nnsc1S(=O)(=O)c1ccc(Cl)cc1

>  <category>
false (0)

$$$$
>  <compound>
O=C1C=C(c2ccc(Cl)cc2)C(=O)N1Nc1ccccc1

>  <category>
true (1)

$$$$
